Parameter: thermal shift delta Tm. Scope: all listed entries.
- System: LOC_OS05G07850-cb002;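 also: purified Escherichia coli-expressed rice kinase domain construct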
- Test Description: thermal shift delta Tm vs DMSO control; higher = stronger stabilization (binding)
- Condition Parameters: 12.5 µM; protein concentration 2 µM
Observable: thermal shift delta Tm (°C)

compound=Cc1cc(C(=O)NOCCO)c(Nc2ccc(I)cc2F)n(C)c1=O units_symbol=°C test_result=0.04
compound=CCS(=O)(=O)Nc1ccc2c(c1)/C(=C(/Nc1ccc(CN3CCCCC3)cc1)c1ccccc1)C(=O)N2 units_symbol=°C test_result=11.8
compound=Nc1nc(N)c(N=O)c(OCC2CCCCC2)n1 units_symbol=°C test_result=8.06
compound=Cc1c(Cn2c(C)nc3c(C(=O)O)cc(N4CCOCC4)cc32)cccc1C(F)(F)F units_symbol=°C test_result=-0.15
compound="COc1ccc(COc2cc3oc(=O)c4cc(C(C)O)ccc4c3cc2OC)cc1 (stereo unspecified)" units_symbol=°C test_result=0.39
compound=Cc1c(C(=O)N2CCOc3ccc(-c4ccc(N)nc4)cc3C2)ccc(S(C)(=O)=O)c1F units_symbol=°C test_result=0.91
